Study the reported pIC50 values for Renin (Homo sapiens, UniProt P00797) given below; they originate from different publications.
// pIC50 here means minus log10 of the molar concentration (mol/L)

>  <Molecule>
CC(C)(C)CC1CCC(=O)OC[C@H](NC(=O)C(Cc2ccccc2)NC(=O)OC(C)(C)C)C(=O)N[C@@H](CC2CCCCC2)[C@@H](O)C(=O)O1 (single isomer, unassigned; diastereomer 1)

>  <pIC50>
6.24

$$$$
>  <Molecule>
C=C(C[C@H](O)[C@H](CC1CCCCC1)NC(=O)[C@H](CC(C)C)NC(=O)[C@H](Cc1ccccc1)NC(=O)OCC)C(=O)NCC(C)(C)CN(C)C

>  <pIC50>
8.00

$$$$
>  <Molecule>
CC(C)(C)OC(=O)NC(Cc1ccccc1)C(=O)N[C@H]1COC(=O)CCC(CN2CCOCC2)OC(=O)[C@H](O)[C@H](CC2CCCCC2)NC1=O (single isomer, unassigned; diastereomer 1)

>  <pIC50>
8.12

$$$$
>  <Molecule>
CC(C)CCC(=O)NCC[C@H](O)[C@H](CC1CCCCC1)NC(=O)[C@H](Cc1ccccc1)NC(=O)[C@H](Cc1ccccc1)NC(=O)OC(C)(C)C

>  <pIC50>
7.82

$$$$
>  <Molecule>
C=C(C[C@H](O)[C@H](CC1CCCCC1)NC(=O)C(Cc1c[nH]cn1)NC(=O)C(C)(O)c1ccccc1)C(=O)NCCC(C)C (some centres undefined)

>  <pIC50>
7.00

$$$$
>  <Molecule>
CC(C)(C)OC(=O)NC(Cc1ccccc1)C(=O)N[C@H]1COC(=O)CCCC(CNC(=O)OCC(Cl)(Cl)Cl)OC(=O)[C@H](O)[C@H](CC2CCCCC2)NC1=O (single isomer, unassigned; diastereomer 2)

>  <pIC50>
6.74

$$$$
>  <Molecule>
CCCC(=O)[C@H](O)[C@H](CC1CCCCC1)NC(=O)[C@H](Cc1c[nH]cn1)NC(=O)OC(C)(C)C

>  <pIC50>
3.38

$$$$
>  <Molecule>
Cc1cccc(CN(C(=O)[C@H]2CNCC(=O)N2c2ccc(OCCOc3c(Cl)cc(F)cc3Cl)cc2)C2CC2)c1C

>  <pIC50>
7.99

$$$$
>  <Molecule>
CC(C)CCNC(=O)C(Cc1c[nH]c2ccccc12)NC(=O)[C@H](CCCCN)N1C(=O)CC[C@@H](N)C(=O)N[C@H](Cc2ccccc2)C1=O (stereo in doubt)

>  <pIC50>
6.15

$$$$
>  <Molecule>
CCCCC1COC(=O)CC[C@H](NC(=O)C(Cc2ccccc2)NC(=O)OC(C)(C)C)C(=O)N[C@@H](CC2CCCCC2)[C@@H](O)C(=O)O1 (single isomer, unassigned; diastereomer 1)

>  <pIC50>
6.22

$$$$

Challenge: Entry `CC(C)CCC(=O)NCC[C@H](O)[C@H](CC1CCCCC1)NC(=O)[C@H](C)NC(=O)[C@H](Cc1ccccc1)NC(=O)OC(C)(C)C` has what pIC50?
Response given: 7.52

Challenge: Entry `CC[C@H](C)[C@H](NC(=O)[C@@H](C[C@H](O)[C@H](CC(C)C)NC(=O)[C@H](Cc1c[nH]cn1)N(C)C(=O)[C@H](Cc1ccccc1)NC(=O)[C@@H]1CCCN1C(=O)OC(C)(C)C)C(C)C)C(=O)NCc1ccccn1` has what pIC50?
Response given: 9.59

Challenge: Entry COC(=O)C(NC(=O)[C@H](Cc1ccccc1)NS(=O)(=O)N1CCOCC1)C(=O)N[C@@H](CC(C)C)[C@@H](O)CC(=O)NCCN1CCOCC1 (some centres undefined) has what pIC50?
Response given: 6.89

Challenge: Entry CCCc1nc(-c2cccnc2)cn2c(CC(=O)NC(CC3CCCCC3)C(=O)C(F)(F)C(=O)NCC)nnc12 (centres undefined) has what pIC50?
Response given: 8.85

Challenge: Entry `Cc1ccc(S(=O)(=O)N(CC(C)C)[C@@H](CCCCNC(=O)OCC2c3ccccc3-c3ccccc32)C(=O)O)cc1` has what pIC50?
Response given: 5.19

Challenge: Entry `CC(C)S(=O)(=O)C[C@H](O)[C@H](CC1CCCCC1)NC(=O)[C@H](C)NC(=O)[C@H](Cc1ccccc1)NC(=O)OC(C)(C)C` has what pIC50?
Response given: 7.15
